From: patent US20260137698A1

# Assay explanation: Pharmacokinetics in mice plasma following intravenous administration
# Type: in vivo, CD-1 mice
# Cond: male, CD-1, mouse, dose 2 mg/kg, read-out: Vss
Endpoint label: Vd (L/kg)
State the answer as a number, implicitly in L/kg.

Example entries begin here.
O=C1c2[nH]cc(-c3nc(N[C@H]4CCC5(CC5)NC4)ncc3C(F)(F)F)c2CCCN1C1CC1 [CDK7_1276]: 6.52
CN1CCCc2c(-c3nc(N[C@H]4CCC(C)(C)NC4)ncc3C(F)(F)F)c[nH]c2C1=O [CDK7_1187]: 10.1
CC1(C)CC[C@H](Nc2ncc(C(F)(F)F)c(-c3c[nH]c4c3CCCN(C3CC3)C4=O)n2)CN1 [CDK7_1225]: 6.3

Tell me the measured Vd of CC(C)N1CCCc2c(-c3nc(N[C@H]4CCC(C)(C)NC4)ncc3C(F)(F)F)c[nH]c2C1=O [CDK7_1229] , please.
4.17

* * *

# Assay explanation: Passive membrane permeability through PAMPA artificial membrane, pH 7.4
# Format: in vitro ADME
# Cond: pH 7.4, 10 μmol, 20 hours at room temperature, mean of multiple measurements, read-out: PAMPA passive permeability Pe
Endpoint label: Papp at 20 h, 10 μmol

Cn1cc(N2CCCc3c(-c4nc(N[C@H]5CCCNC5)ncc4C(F)(F)F)c[nH]c3C2=O)cn1: < 1 ×10⁻⁶ cm/s
CP(C)(=O)c1ccccc1Nc1nc(N[C@H]2CCCNC2)ncc1C(F)(F)F: < 1 ×10⁻⁶ cm/s
Cn1cc(NC(=O)c2cc(-c3nc(N[C@H]4CCCNC4)ncc3C(F)(F)F)c[nH]2)cn1: < 1 ×10⁻⁶ cm/s

Moving on to the next compound.
Tell me the measured Papp at 20 h, 10 μmol of CC1CCc2c(-c3nc(N[C@H]4CCCNC4)ncc3C(F)(F)F)c[nH]c2C(=O)N1C (stereo partly shown) , please.
1 to 5 ×10⁻⁶ cm/s

* * *

# Assay explanation: Blood-brain barrier permeability: PK in mice brain homogenate following oral administration
# Type: in vivo, CD-1 mice
# Cond: male, CD-1, mouse, mice brain homogenate, dose 10 mg/kg, read-out: t½ (converted)
In this section we review reported half-life values for a set of compounds.
State the answer as a number, implicitly in h.

Example entries begin here.
CC(C)N1CCCc2c(-c3nc(N[C@H]4CCC5(CC5)NC4)ncc3C(F)(F)F)c[nH]c2C1=O [CDK7_1277]: 2.76
CC(C)N1CCCc2c(-c3nc(N[C@H]4CCC(C)(C)NC4)ncc3C(F)(F)F)c[nH]c2C1=O [CDK7_1229]: 2.25
O=C1c2[nH]cc(-c3nc(N[C@H]4CCC5(CC5)NC4)ncc3C(F)(F)F)c2CCCN1C1CC1 [CDK7_1276]: 1.99

Moving on to the next compound.
Tell me the measured half-life of CC1(C)CC[C@H](Nc2ncc(C(F)(F)F)c(-c3c[nH]c4c3CCCN(C3CC3)C4=O)n2)CN1 [CDK7_1225] , please.
2.33

* * *

# Assay target: CDK2/Cyclin A (Homo sapiens)
# Assay explanation: Inhibition of CDK2/Cyclin A kinase activity (ADP-Glo)
# Format: biochemical
# Cond: mean value from several measurements; read-out: IC50 CDK2/Cyclin A
pIC50: −log10 of the molar value.
In this section we review reported pIC50 values for a set of compounds.

Example entries begin here.
CP(C)(=O)c1ccccc1Oc1nc(N[C@H]2CCCNC2)ncc1C(F)(F)F: < 6.70
CC1(C)CC[C@H](Nc2ncc(C(F)(F)F)c(-c3c[nH]c4c3CCCN(C3CCCC3)C4=O)n2)CN1: < 6.70
CN1CCCc2c(-c3nc(N[C@H]4CCC5(CC5)NC4)ncc3C(F)(F)F)c[nH]c2C1=O: < 6.70
Cc1nc(-c2cc(-c3nc(N[C@H]4CCCNC4)ncc3C(F)(F)F)c[nH]2)no1: < 6.70
N#Cc1ccc(NC(=O)c2cc(-c3nc(N[C@H]4CCCNC4)ncc3C(F)(F)F)c[nH]2)cc1: < 6.70
CN1Cc2c(-c3nc(N[C@H]4CCCNC4)ncc3C(F)(F)F)c[nH]c2C1=O: < 6.70
O=C(Nc1ncc[nH]1)c1cc(-c2nc(N[C@H]3CCCNC3)ncc2C(F)(F)F)c[nH]1: < 6.70

Moving on to the next compound.
Test system CDK2/Cyclin A (Homo sapiens); read-out pIC50; what value for `CC(C)N1CCCc2c(-c3nc(N[C@H]4CCC5(CC5)NC4)ncc3C(F)(F)F)c[nH]c2C1=O` ?
< 6.70

* * *

# Assay target: CDK9/Cyclin K (Homo sapiens, UniProt P50750)
# Sequence (P50750 whole entry): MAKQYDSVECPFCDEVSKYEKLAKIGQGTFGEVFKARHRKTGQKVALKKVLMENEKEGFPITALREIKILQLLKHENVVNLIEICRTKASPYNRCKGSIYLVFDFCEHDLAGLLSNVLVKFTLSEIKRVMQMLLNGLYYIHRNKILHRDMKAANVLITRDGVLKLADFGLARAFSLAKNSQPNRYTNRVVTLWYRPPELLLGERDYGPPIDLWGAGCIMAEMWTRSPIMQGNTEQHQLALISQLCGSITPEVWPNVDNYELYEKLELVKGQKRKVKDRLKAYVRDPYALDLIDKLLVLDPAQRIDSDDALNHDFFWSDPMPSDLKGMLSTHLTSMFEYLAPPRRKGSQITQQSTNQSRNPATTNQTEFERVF
# Sequence (O75909 whole entry partner): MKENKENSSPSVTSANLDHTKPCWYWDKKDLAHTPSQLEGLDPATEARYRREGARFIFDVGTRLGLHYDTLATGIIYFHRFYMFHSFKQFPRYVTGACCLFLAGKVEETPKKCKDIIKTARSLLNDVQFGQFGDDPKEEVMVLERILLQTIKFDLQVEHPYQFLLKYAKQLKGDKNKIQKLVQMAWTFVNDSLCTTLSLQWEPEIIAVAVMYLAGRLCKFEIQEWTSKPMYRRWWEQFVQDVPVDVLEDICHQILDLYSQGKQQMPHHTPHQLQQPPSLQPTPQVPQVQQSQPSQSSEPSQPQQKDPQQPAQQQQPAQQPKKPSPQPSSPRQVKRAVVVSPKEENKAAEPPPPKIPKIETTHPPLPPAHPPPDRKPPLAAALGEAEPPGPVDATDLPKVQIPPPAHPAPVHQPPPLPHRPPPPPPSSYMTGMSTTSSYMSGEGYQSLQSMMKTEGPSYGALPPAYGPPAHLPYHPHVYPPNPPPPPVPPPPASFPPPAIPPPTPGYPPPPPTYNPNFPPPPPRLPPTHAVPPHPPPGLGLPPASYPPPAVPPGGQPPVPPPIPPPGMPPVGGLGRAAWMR
# Assay explanation: Inhibition of CDK9/Cyclin K kinase activity (ADP-Glo)
# Format: biochemical
# Cond: mean value from several measurements; read-out: IC50 CDK9/Cyclin K
# Procedure: Measurements were carried out in a 5 μl reaction volume using a 384-well plate (Corning Inc., order no. 4513). The analyzed substances were titrated from 50 μM in increments of 4 at 11 concentration points in a normal strength kinase buffer A (Thermo Fisher Scientific Inc, cat. no. PV3189) supplemented with DTT (Sigma, orde. no. 646563-10X.5ML) and prepared with water (Panreac, order no. 701074). […]
pIC50: −log10 of the molar value.
Endpoint label: pIC50

Cn1ccc2c(-c3nc(N[C@H]4CCCNC4)ncc3C(F)(F)F)c[nH]c2c1=O: 7.30 to 8.30
Cc1ccc(Nc2nc(N[C@H]3CCCNC3)ncc2C(F)(F)F)c(P(C)(C)=O)c1: 7.30 to 8.30
O=C(Nc1ccncc1)c1cc(-c2nc(N[C@H]3CCCNC3)ncc2C(F)(F)F)c[nH]1: 6.70 to 7.30
O=C(NC1CCC(O)CC1)c1cc(-c2nc(N[C@H]3CCCNC3)ncc2C(F)(F)F)c[nH]1 (some centres unmarked): 6.70 to 7.30

Tell me the measured pIC50 of `O=C1c2[nH]cc(-c3nc(N[C@H]4CCC5(CC5)NC4)ncc3C(F)(F)F)c2CCCN1C1CC1` , please.
< 6.70

Now this one: `CN1CCC(=O)c2c(-c3nc(N[C@H]4CCCNC4)ncc3C(F)(F)F)c[nH]c2C1=O`
< 6.70

Now this one: `O=C(Nc1ccc(N2CCOCC2)cc1)c1cc(-c2nc(N[C@H]3CCCNC3)ncc2C(F)(F)F)c[nH]1`
6.70 to 7.30

Now this one: Cn1ccnc1N1CCCc2c(-c3nc(NC4CCCNC4)ncc3C(F)(F)F)c[nH]c2C1=O (centres unmarked)
< 6.70

* * *

# Assay target: CDK9/Cyclin K (Homo sapiens, UniProt P50750)
# Assay explanation: Inhibition of CDK9/Cyclin K kinase activity (ADP-Glo)
# Type: biochemical
# Cond: mean of multiple measurement series; ATP 50 μM; read-out: CDK9/Cyclin K IC50
# Method: Measurements were carried out in a 5 μl reaction volume using a 384-well plate (Corning Inc., order no. 4513). The analyzed substances were titrated from 50 μM in increments of 4 at 11 concentration points in a normal strength kinase buffer A (Thermo Fisher Scientific Inc, cat. no. PV3189) supplemented with DTT (Sigma, orde. no. 646563-10X.5ML) and prepared with water (Panreac, order no. 701074). […]
In this section we review reported IC50 values for a set of molecules.
State the answer as a number, implicitly in nM.

Example entries begin here.
Cn1cc(-n2ccc3c(-c4nc(N[C@H]5CCC(C)(C)NC5)ncc4C(F)(F)F)c[nH]c3c2=O)cn1 [CDK7_1123]: 265
O=C1c2[nH]cc(-c3nc(N[C@H]4CCC5(CC5)NC4)ncc3C(F)(F)F)c2CCCN1C1CC1 [CDK7_1276]: 296
CC(C)N1CCCc2c(-c3nc(N[C@H]4CCC(C)(C)NC4)ncc3C(F)(F)F)c[nH]c2C1=O [CDK7_1229]: 485
CC(C)N1CCCc2c(-c3nc(N[C@H]4CCC5(CC5)NC4)ncc3C(F)(F)F)c[nH]c2C1=O [CDK7_1277]: 442
CN1CCCc2c(-c3nc(N[C@H]4CCC5(CC5)NC4)ncc3C(F)(F)F)c[nH]c2C1=O [CDK7_1201]: 112
CN1CCCc2c(-c3nc(N[C@H]4CCC(C)(C)NC4)ncc3C(F)(F)F)c[nH]c2C1=O [CDK7_1187]: 182

Test system CDK9/Cyclin K (Homo sapiens, UniProt P50750); read-out IC50; what value for O=c1c2[nH]cc(-c3nc(N[C@H]4CCCNC4)ncc3C(F)(F)F)c2ccn1Cc1ccccc1 [CDK7_961] ?
69

* * *

In this section we review reported CC50 at 72 h values for a set of compounds.
# Assay explanation: General cytotoxicity on primary differentiated HepaRG cells (72 h)
# Assay type: cell-based
# Cond: human, general toxicity, mean value from several measurements

Example entries begin here.
Cn1ccc2c(-c3nc(N[C@H]4CCCNC4)ncc3C(F)(F)F)c[nH]c2c1=O [CDK7_845]: 100 to 500 nM
Cn1c(-c2cc(-c3nc(N[C@H]4CCCNC4)ncc3C(F)(F)F)c[nH]2)nc2ccccc21 [CDK7_1124]: > 2000 nM
CC1(C)CC[C@H](Nc2ncc(C(F)(F)F)c(-c3c[nH]c4c3CCCN(CC3CC3)C4=O)n2)CN1 [CDK7_1227]: > 2000 nM
CN(C)C(=O)c1cc(-c2nc(N[C@H]3CCCNC3)ncc2C(F)(F)F)c[nH]1 [CDK7_536]: 500 to 2000 nM
CC(C)N1CCCc2c(-c3nc(N[C@H]4CCC5(CC5)NC4)ncc3C(F)(F)F)c[nH]c2C1=O [CDK7_1277]: > 2000 nM

Tell me the measured CC50 at 72 h of O=C1NCCc2c(-c3nc(N[C@H]4CCCNC4)ncc3C(F)(F)F)c[nH]c21 [CDK7_814] , please.
500 to 2000 nM

Now this one: CN(C)C(=O)c1nc(-c2nc(N[C@H]3CCCNC3)ncc2C(F)(F)F)c[nH]1 [CDK7_966]
> 2000 nM

Now this one: CC(=O)Nc1ccccc1Nc1nc(N[C@H]2CCCNC2)ncc1C(F)(F)F [CDK7_898]
> 2000 nM

Now this one: CP(C)(=O)c1cccc(Nc2nc(N[C@H]3CCCNC3)ncc2C(F)(F)F)c1 [CDK7_888]
> 2000 nM
